# PROTOCOL_SUMMARY: Fraction unbound in Beagle dog plasma at 1 mg/kg, iv or 2 mg/kg, po administered as single dose
# Format: ADME, organism-based, Canis lupus familiaris
TEST_READOUT: fraction unbound
Please give the numeric answer without any surrounding text.

**Q:** I'd like to know its fraction unbound. The molecule in question is COc1cc(-c2ccc([C@@H]3CCc4ccc([C@H](C5CC5)[C@H](C)C(=O)[O-])cc4O3)c(F)c2)ccn1.[Na+]
**A:** 0.015

====

The reader will find reported pIC50 values listed item by item below.
# SYSTEM_UNDER_TEST: UniProtKB O95342
# Sequence (O95342 whole entry): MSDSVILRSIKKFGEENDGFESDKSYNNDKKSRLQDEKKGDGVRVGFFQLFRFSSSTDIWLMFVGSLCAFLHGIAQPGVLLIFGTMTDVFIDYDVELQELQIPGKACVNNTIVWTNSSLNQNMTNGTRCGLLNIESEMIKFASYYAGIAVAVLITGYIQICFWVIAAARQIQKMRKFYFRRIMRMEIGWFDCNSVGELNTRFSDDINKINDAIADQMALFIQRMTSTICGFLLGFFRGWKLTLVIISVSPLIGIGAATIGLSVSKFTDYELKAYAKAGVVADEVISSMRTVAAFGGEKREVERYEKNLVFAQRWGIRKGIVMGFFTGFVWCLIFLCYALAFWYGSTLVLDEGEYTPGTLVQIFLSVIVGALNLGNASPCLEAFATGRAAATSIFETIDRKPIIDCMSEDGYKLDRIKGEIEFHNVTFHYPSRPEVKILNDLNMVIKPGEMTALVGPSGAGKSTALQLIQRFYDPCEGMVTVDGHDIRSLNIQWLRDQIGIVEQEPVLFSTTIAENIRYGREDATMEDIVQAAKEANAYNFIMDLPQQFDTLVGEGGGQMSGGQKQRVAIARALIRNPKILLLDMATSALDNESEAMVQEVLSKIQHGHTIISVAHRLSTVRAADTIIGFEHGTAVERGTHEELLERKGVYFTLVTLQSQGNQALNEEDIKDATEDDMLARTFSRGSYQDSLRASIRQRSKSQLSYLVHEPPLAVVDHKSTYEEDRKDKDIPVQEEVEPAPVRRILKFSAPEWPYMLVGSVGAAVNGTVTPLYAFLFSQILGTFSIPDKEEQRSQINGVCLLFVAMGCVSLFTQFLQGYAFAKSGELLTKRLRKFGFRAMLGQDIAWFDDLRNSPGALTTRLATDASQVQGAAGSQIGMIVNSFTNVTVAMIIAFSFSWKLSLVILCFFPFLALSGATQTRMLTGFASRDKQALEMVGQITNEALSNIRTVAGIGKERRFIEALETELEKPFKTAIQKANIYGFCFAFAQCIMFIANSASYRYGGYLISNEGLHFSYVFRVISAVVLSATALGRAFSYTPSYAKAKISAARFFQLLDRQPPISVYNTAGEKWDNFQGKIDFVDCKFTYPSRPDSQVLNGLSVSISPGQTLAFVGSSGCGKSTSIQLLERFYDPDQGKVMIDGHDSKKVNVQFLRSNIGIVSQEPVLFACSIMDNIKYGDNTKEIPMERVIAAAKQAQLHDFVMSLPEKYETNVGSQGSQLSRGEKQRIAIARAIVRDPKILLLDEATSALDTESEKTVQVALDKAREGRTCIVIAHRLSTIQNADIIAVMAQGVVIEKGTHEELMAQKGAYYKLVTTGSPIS
# PROTOCOL_SUMMARY: Inhibition of human BSEP expressed in baculovirus infected Sf9 insect cell membrane vesicles assessed as reduction in ATP-dependent [3H]-taurocholic acid uptake
Keep it numeric: pIC50 is minus log10 of the concentration in mol/L.

**Q:** // lookup pIC50 for COc1cc(-c2ccc(C3CCc4ccc([C@H](C5CC5)[C@H](C)C(=O)[O-])cc4O3)nc2)c(F)cn1.[Na+] (stereo in doubt; 29)
**A:** 5.49

Continuing:
**Q:** For COc1ccc(F)c(-c2ccc(C3CCc4ccc([C@H](C5CC5)[C@H](C)C(=O)[O-])cc4O3)cc2)c1.[Na+] (stereo in doubt; 14) , what is its reported pIC50?
**A:** 5.85

**Q:** // returns reported pIC50 for input COc1cc(-c2ccc([C@@H]3CCc4ccc([C@H](C5CC5)[C@H](C)C(=O)[O-])cc4O3)c(F)c2)ccn1.[Na+]
**A:** 5.46

**Q:** Reported pIC50 for COc1ccc(F)c(-c2ccc(C3CCc4ccc([C@H](C5CC5)[C@H](C)C(=O)[O-])cc4O3)nc2)c1.[Na+] (stereo in doubt; 16) : what is it?
**A:** 6.52

====

# SYSTEM_UNDER_TEST: Free fatty acid receptor 1 (Homo sapiens, UniProt O14842)
# Sequence (O14842 whole entry): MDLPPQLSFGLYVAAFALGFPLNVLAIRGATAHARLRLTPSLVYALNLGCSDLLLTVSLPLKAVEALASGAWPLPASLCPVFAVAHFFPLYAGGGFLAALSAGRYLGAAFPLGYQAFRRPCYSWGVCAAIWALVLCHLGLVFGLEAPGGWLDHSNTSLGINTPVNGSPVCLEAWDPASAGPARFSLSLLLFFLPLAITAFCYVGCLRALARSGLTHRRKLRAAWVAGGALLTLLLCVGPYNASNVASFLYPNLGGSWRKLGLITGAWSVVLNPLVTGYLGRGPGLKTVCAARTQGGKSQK
# PROTOCOL_SUMMARY: Agonist activity at recombinant human GPR40 expressed in HEK293 cells assessed as increase in IP1 accumulation measured after 60 mins by HTRF assay
# Type: functional, cell-based
pEC50 values by entry
Reminder that pEC50 means the negative base-10 logarithm of the concentration expressed in mol/L.

Below are worked cases with known answers.
**Q:** Entry COc1cc(-c2ccc(C3CCc4ccc([C@H](C5CC5)[C@H](C)C(=O)[O-])cc4O3)cc2)c(F)cn1.[Na+] (stereo in doubt; 20) has what pEC50?
**A:** 9.05

**Q:** Using the record for O=C(O)C[C@H](c1ccc2c(c1)OC(c1ccc(-c3cccc(O)c3)cc1)CC2)C1CC1 (mixture of isomers) , report its pEC50.
**A:** 6.41

**Q:** Would you kindly share the measured pEC50 for COc1ccc(F)c(-c2ccc(C3CCc4ccc([C@H](C5CC5)[C@H](C)C(=O)[O-])cc4O3)cc2)c1.[Na+] (stereo in doubt; 14) ?
**A:** 8.96

**Q:** Form field: reported pEC50 of COc1cc(-c2ccc(C3CCc4ccc([C@H](C5CC5)[C@H](C)C(=O)[O-])cc4O3)nc2)c(F)cn1.[Na+] (stereo in doubt; 29)
**A:** 8.57

Field: next compound
**Q:** Given the compound COc1cccc(-c2ccc(C3CCc4ccc([C@@H](CC(=O)O)C5CC5)cc4O3)cc2)c1 (single isomer, unassigned) , what is its reported pEC50?
**A:** 7.64

====

# PROTOCOL_SUMMARY: Effective half life in rhesus monkey at 1 mg/kg, iv or 2 mg/kg, po administered as single dose
# Type: ADME, organism-based, Macaca mulatta
# CONDITION_NOTES: in vivo, read-out: t1/2eff (converted)
TEST_READOUT: half-life (h)
Please respond with the number in h and leave the unit unwritten.

**Q:** Field request: half-life | item: COc1cc(-c2ccc([C@@H]3CCc4ccc([C@H](C5CC5)[C@H](C)C(=O)[O-])cc4O3)c(F)c2)ccn1.[Na+]
**A:** 10

====

# PROTOCOL_SUMMARY: Tmax in Wistar rat at 200 mg/kg administered once daily for 4 days
# Format: ADME, organism-based
# CONDITION_NOTES: in vivo
TEST_READOUT: Tmax

**Q:** Looking for the measured Tmax of COc1cc(-c2ccc([C@@H]3CCc4ccc([C@H](C5CC5)[C@H](C)C(=O)[O-])cc4O3)c(F)c2)ccn1.[Na+] , can you help?
**A:** 1 to 2 h

====

# PROTOCOL_SUMMARY: Fraction unbound in rhesus monkey plasma at 1 mg/kg, iv or 2 mg/kg, po administered as single dose
# Assay type: ADME, organism-based, Macaca mulatta
TEST_READOUT: fraction unbound

**Q:** Query: fraction unbound; subject: COc1cc(-c2ccc([C@@H]3CCc4ccc([C@H](C5CC5)[C@H](C)C(=O)[O-])cc4O3)c(F)c2)ccn1.[Na+]
**A:** 0.00071

====

# PROTOCOL_SUMMARY: Cmax in Wistar rat at 200 mg/kg administered once daily for 4 days
# Format: ADME, organism-based
# Set-up: dose 200 mg/kg
# CONDITION_NOTES: in vivo
TEST_READOUT: Cmax (µM)
Express the result in µM but write the number alone.

**Q:** What does the data say about its Cmax? Entry: COc1cc(-c2ccc([C@@H]3CCc4ccc([C@H](C5CC5)[C@H](C)C(=O)[O-])cc4O3)c(F)c2)ccn1.[Na+]
**A:** 223

====

# SYSTEM_UNDER_TEST: Free fatty acid receptor 1 (Homo sapiens, UniProt O14842)
# PROTOCOL_SUMMARY: Agonist activity at recombinant human GPR40 expressed in HEK293 cells assessed as increase in IP1 accumulation measured after 60 mins in presence of 100% human serum by HTRF assay relative to AM-1638
# Format: functional, cell-based
Examples of compounds with documented max activation follow.

// below: answered compounds
**Q:** Recorded max activation of COc1ccc(F)c(-c2ccc(C3CCc4ccc([C@H](C5CC5)[C@H](C)C(=O)O)cc4O3)cc2)c1 (stereo in doubt; 14) , please.
**A:** > 179%

**Q:** Which max activation value is on record for COc1cccc(-c2ccc(C3CCc4ccc([C@@H](CC(=O)O)C5CC5)cc4O3)cc2)n1 (mixture of isomers) ?
**A:** 2.4%

**Q:** Which max activation reading was recorded for the compound COc1cccc(-c2ccc(C3CCc4ccc([C@@H](CC(=O)O)C5CC5)cc4O3)cc2)c1 (single isomer, unassigned) ?
**A:** 223%

Continuing:
**Q:** Reported max activation, compound COc1cc(-c2cnc(C3CCc4ccc([C@H](C5CC5)[C@H](C)C(=O)O)cc4O3)c(F)c2)c(F)cn1 (stereo in doubt; 31) : ____
**A:** > 179%

**Q:** Given COc1cc(-c2ccc(C3CCc4ccc([C@H](C5CC5)[C@H](C)C(=O)O)cc4O3)cc2)c(F)cn1 (stereo in doubt; 21) , state its recorded max activation.
**A:** > 179%

**Q:** Look at this compound and give its reported max activation. COc1cc(-c2ccc(C3CCc4ccc([C@H](C5CC5)[C@H](C)C(=O)O)cc4O3)cc2)c(F)cn1 (stereo in doubt; 20)
**A:** > 179%

**Q:** For COc1cc(-c2ccc(C3CCc4ccc([C@H](C5CC5)[C@H](C)C(=O)O)cc4O3)nc2)ccn1 (stereo in doubt; 33) , what is its reported max activation?
**A:** > 179%

**Q:** Consider the compound shown here: COc1cc(-c2ccc(C3CCc4ccc([C@@H](CC(=O)O)C5CC5)cc4O3)cc2)ccn1 (mixture of isomers) What is its recorded max activation?
**A:** 229%

====

Known EC50 of a selection of compounds
# SYSTEM_UNDER_TEST: Free fatty acid receptor 1 (Homo sapiens, UniProt O14842)
# PROTOCOL_SUMMARY: Agonist activity at recombinant human GPR40 expressed in HEK293 cells assessed as increase in IP1 accumulation measured after 60 mins by HTRF assay
# Assay type: functional, cell-based
Expressed in nM, but write only the number.

**Q:** So what does the record say about EC50 for O=C(O)C[C@H](c1ccc2c(c1)OC(c1ccc(-c3cccc(OC(F)(F)F)c3)cc1)CC2)C1CC1 (mixture of isomers) ?
**A:** 934

**Q:** Given the entry COc1cc(-c2ccc([C@@H]3CCc4ccc([C@H](C5CC5)[C@H](C)C(=O)[O-])cc4O3)c(F)c2)ccn1.[Na+] , report its measured EC50.
**A:** 0.8

**Q:** Would you kindly share the measured EC50 for COc1ccc(F)c(-c2ccc(C3CCc4ccc([C@H](C5CC5)[C@H](C)C(=O)O)cc4O3)cn2)c1 (stereo in doubt; 18) ?
**A:** 24

====

# PROTOCOL_SUMMARY: AUC (0 to 24 hrs) in Wistar rat at 200 mg/kg administered once daily for 4 days
# Type: ADME, organism-based
# Set-up: dose 200 mg/kg, time < 24 hr
# CONDITION_NOTES: in vivo
TEST_READOUT: AUC at 24 h (µM·h)
Field: numeric (µM·h). Do not append units.

**Q:** For COc1cc(-c2ccc([C@@H]3CCc4ccc([C@H](C5CC5)[C@H](C)C(=O)[O-])cc4O3)c(F)c2)ccn1.[Na+] , what is its reported AUC at 24 h?
**A:** 2310
